- Test system: Balanus amphitrite cypris larvae
- assay.conditions: read-out: LC50 (concentration in which 50% of the test larvae population was killed); Balanus amphitrite cypris larvae, 48 h;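 also: larvae held in 24-well plates with compound in seawater, dark, 48 h, settled larvae (attached plus metamorphosed) and dead or missing larvae counted microscopically as percent of total per well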
attribute.measured: LC50

OCC(O)C(c1c[nH]c2ccccc12)c1c[nH]c2ccccc12 (centres unmarked) = > 327 µM

Next:
Field: LC50 (Balanus amphitrite cypris larvae). Entry: CC(c1c[nH]c2ccccc12)c1c[nH]c2ccccc12
> 192 µM

----------
- procedure.summary: in vivo
- assay.conditions: Balanus (=Amphibalanus) amphitrite (barnacle, cypris larvae)
attribute.measured: LC50 at 48 h (µM)
Numbers only, in µM.

What value of measured LC50 at 48 h is listed for c1ccc2[nH]ccc2c1 [Indole, indole, reference compound] ?
85.4
